biological target: ΔF508-CFTR (Homo sapiens, UniProt P13569, DEL508-508); construct: host or cells: CFBE41o-, doxycycline-inducible; assay: CFTR cell surface levels using HRP-tagged ΔF508-CFTR expressing CFBE cells, in the presence of a co-corrector; type: cell-based; details: HRP-tagged ΔF508-CFTR CFBE cells, in the presence of 3 μM co-corrector; read-out: EC50
Sequence (P13569 with tags, fused parts or gaps DEL508-508): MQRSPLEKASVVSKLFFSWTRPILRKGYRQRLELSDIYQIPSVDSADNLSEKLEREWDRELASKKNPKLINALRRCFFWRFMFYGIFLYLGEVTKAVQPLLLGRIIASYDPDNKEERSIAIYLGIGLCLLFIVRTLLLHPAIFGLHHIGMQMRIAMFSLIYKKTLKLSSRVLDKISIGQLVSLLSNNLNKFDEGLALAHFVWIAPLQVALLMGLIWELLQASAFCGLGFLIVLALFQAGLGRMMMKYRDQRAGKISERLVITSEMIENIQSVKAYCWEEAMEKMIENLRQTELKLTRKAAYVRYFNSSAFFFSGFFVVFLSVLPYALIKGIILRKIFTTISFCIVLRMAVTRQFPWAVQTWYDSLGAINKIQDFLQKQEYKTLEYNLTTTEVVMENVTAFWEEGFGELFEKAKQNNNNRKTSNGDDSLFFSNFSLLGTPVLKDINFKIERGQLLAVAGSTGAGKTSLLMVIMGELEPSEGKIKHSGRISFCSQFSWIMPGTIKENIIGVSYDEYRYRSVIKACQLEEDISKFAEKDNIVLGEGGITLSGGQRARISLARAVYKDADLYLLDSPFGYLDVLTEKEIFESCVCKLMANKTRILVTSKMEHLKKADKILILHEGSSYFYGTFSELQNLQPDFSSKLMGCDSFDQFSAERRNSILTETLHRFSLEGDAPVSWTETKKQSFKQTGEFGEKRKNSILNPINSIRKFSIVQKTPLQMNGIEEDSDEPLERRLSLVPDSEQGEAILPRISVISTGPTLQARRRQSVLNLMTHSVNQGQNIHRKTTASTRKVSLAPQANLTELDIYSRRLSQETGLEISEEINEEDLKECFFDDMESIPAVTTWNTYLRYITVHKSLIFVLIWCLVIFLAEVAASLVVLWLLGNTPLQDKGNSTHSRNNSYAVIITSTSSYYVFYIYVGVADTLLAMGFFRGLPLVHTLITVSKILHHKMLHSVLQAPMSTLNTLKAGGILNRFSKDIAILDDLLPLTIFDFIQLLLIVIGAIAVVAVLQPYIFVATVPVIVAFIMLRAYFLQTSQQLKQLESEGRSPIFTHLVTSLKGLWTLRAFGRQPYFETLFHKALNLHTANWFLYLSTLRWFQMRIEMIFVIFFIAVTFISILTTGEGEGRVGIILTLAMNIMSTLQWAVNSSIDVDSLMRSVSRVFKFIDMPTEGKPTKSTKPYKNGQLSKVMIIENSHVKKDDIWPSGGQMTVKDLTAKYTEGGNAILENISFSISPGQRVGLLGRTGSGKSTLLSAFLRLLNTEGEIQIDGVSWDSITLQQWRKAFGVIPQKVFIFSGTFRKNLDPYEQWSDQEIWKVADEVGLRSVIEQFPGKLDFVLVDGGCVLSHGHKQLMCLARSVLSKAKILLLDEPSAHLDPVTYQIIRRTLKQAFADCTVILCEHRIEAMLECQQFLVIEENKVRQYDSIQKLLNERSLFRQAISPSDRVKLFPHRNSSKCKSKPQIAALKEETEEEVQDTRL
endpoint-label: pEC50
Field pEC50 (float): negative decimal logarithm of the concentration in molar.

// returns pEC50 for COCCS(=O)(=O)NC(=O)c1cc(N2CCC(COC)CC2)c2c(C3CCC3)nn(-c3ccc(F)cc3)c2n1 [Compound 670] with ΔF508-CFTR (Homo sapiens, UniProt P13569, DEL508-508); value = 6.72

pEC50 on ΔF508-CFTR (Homo sapiens, UniProt P13569, DEL508-508) for CONS(=O)(=O)NC(=O)c1cc(N2CCC(N3CCOCC3)CC2)c2c(C3CCC3)nn(-c3ccc(F)cc3)c2n1 [Compound 592] is 7.25

Considering O=C(NS(=O)(=O)N1CCOCC1)c1cc(N2CCC(N3CCOCC3)CC2)c2c(C3CCC3)nn(-c3ccc(F)cc3)c2n1 [Compound 487] , its pEC50 with ΔF508-CFTR (Homo sapiens, UniProt P13569, DEL508-508) was recorded as 7.16

The measured pEC50 that CC(C)Oc1nn(C2CCCCC2)c2nc(C(=O)NS(=O)(=O)N(C)C)cc(-c3ccc(CN4CCN(C)CC4)cc3)c12 [Compound 442] showed for ΔF508-CFTR (Homo sapiens, UniProt P13569, DEL508-508) is 5.95

So the reported pEC50 for COC(C)(C)C1CCN(c2cc(C(=O)NS(C)(=O)=O)nc3c2c(C(C)C)nn3-c2ccc(F)cc2)CC1 [Compound 221] , on ΔF508-CFTR (Homo sapiens, UniProt P13569, DEL508-508), turned out to be 7.11

ΔF508-CFTR (Homo sapiens, UniProt P13569, DEL508-508) assay, compound CCS(=O)(=O)NC(=O)c1cc(-c2ccc(N3CCOCC3)cc2)c2c(C)nn(-c3cccc(OC)c3)c2n1 [Compound 73] , recorded pEC50 = 6.31

The measured pEC50 that CS(=O)(=O)NC(=O)c1cc(-c2ccc(N3CCC(C#N)CC3)nc2)c2c(C3CCC3)nn(-c3ccnc(N4CCOCC4)c3)c2n1 [Compound 201] showed for ΔF508-CFTR (Homo sapiens, UniProt P13569, DEL508-508) is 6.53

Value sought: pEC50, system ΔF508-CFTR (Homo sapiens, UniProt P13569, DEL508-508), item COCCS(=O)(=O)NC(=O)c1cc(-c2ccc(C(=O)N3CCC(N(C)C)CC3)cc2)c2c(OC(C)C)nn(C3CCCCC3)c2n1 [Compound 545] . Result: 5.72

Hey, ΔF508-CFTR (Homo sapiens, UniProt P13569, DEL508-508) data for O=C(NS(=O)(=O)C1CC1)c1cc(N2CCC(N3CCN(C4CC4)CC3)CC2)c2c(C3CCC3)nn(-c3ccccc3)c2n1 [Compound 550] : pEC50 came out at 6.76

ΔF508-CFTR (Homo sapiens, UniProt P13569, DEL508-508) pEC50 of CC1(c2nn(-c3ccccc3)c3nc(C(=O)NS(C)(=O)=O)cc(-c4ccc(N5CCOCC5)cc4)c23)CCC1 [Compound 137] is 6.19

The observed pEC50 for CN1CCCCC1CCOc1cc(C(=O)NS(C)(=O)=O)nc2c1c(C1CCC1)nn2-c1ccccc1 (centres unmarked) [Compound 323] when tested with ΔF508-CFTR (Homo sapiens, UniProt P13569, DEL508-508) stands at 6.43

Fill in: ΔF508-CFTR (Homo sapiens, UniProt P13569, DEL508-508) pEC50 for CN(c1ccc(-c2cc(C(=O)NS(C)(=O)=O)nc3c2c(C2CCC2)nn3-c2ccccc2)cn1)C1CCOCC1 [Compound 74] = 6.45

Entry CC(C)c1nn(C2CCCCC2)c2nc(C(=O)NS(C)(=O)=O)cc(-c3cnc(N(C)C)nc3)c12 [Compound 9] ; assay system ΔF508-CFTR (Homo sapiens, UniProt P13569, DEL508-508); pEC50 recorded at 6.30

Observed pEC50 on ΔF508-CFTR (Homo sapiens, UniProt P13569, DEL508-508), entry CCS(=O)(=O)NC(=O)c1cc(-c2ccc(N3CCOCC3)cc2)c2c(C(C)C)nn(C3CCCOC3)c2n1 (centres unmarked) [Compound 40] , equals 6.37

* * *

biological target: ΔF508-CFTR (Homo sapiens, UniProt P13569, DEL508-508); construct: host or cells: CFBE41o-, doxycycline-inducible; experiment: CFTR cell surface levels using HRP-tagged ΔF508-CFTR expressing CFBE cells, in the presence of a co-corrector; assay type: cell-based; settings: HRP-tagged ΔF508-CFTR CFBE cells, in the presence of 3 μM co-corrector; read-out: EC50
endpoint-label: pEC50
The value called pEC50 is obtained by taking minus log10 of the concentration in mol/L.

pEC50 in this record for COC1CN(C2CCN(c3cc(C(=O)NS(C)(=O)=O)nc4c3c(C3CCC3)nn4-c3ccc(F)cc3)CC2)C1 [Compound 585] : 6.61

Input CN(C)S(=O)(=O)NC(=O)c1cc(C2CCN(C3CCC(F)(F)CC3)CC2)c2c(C3CCC3)nn(-c3ccc(F)cc3)c2n1 [Compound 594] . Output pEC50: 6.74

// pEC50 value for CN(C)S(=O)(=O)NC(=O)c1cc(N2CCC(CCN3CCOCC3)CC2)c2c(C3CCC3)nn(-c3ccc(F)cc3)c2n1 [Compound 416] : 7.19

Note to self: pEC50 recorded for Cc1nn(-c2ccccc2)c2nc(C(=O)NS(C)(=O)=O)cc(-c3ccc(N4CCOCC4)cc3)c12 [Compound 1] was 5.93

Lab note: CC(C)c1nn(-c2ccc(F)cc2)c2nc(C(=O)NS(C)(=O)=O)cc(N3CCC(N(C)C)CC3)c12 [Compound 319] gave pEC50 of 6.01

Lookup result for COCCS(=O)(=O)NC(=O)c1cc(N2CCC(OC)CC2)c2c(C3CCC3)nn(-c3ccccc3)c2n1 [Compound 146] ; measured pEC50: 7.01

// pEC50 value for CC(C)COC1CCN(c2cc(C(=O)NS(C)(=O)=O)nc3c2c(C(C)C)nn3-c2ccc(F)cc2)CC1 [Compound 175] : 6.70

* * *

molecular target: ΔF508-CFTR (Homo sapiens, UniProt P13569, DEL508-508); construct: host or cells: CFBE41o-, doxycycline-inducible; assay: CFTR cell surface levels using HRP-tagged ΔF508-CFTR expressing CFBE cells, intrinsic corrector capacity; assay type: cell-based; set-up: concentration or dose not given beside the values; conditions: HRP-tagged ΔF508-CFTR expressing CFBE41o- cells; compound alone (intrinsic corrector capacity); 20 hours at 33° C.
Response field class: enum, chosen by comparing % Activation against L = under 200%, M = from 200% up to 300%, H = 300% and over

Challenge: // bin(item) where item = CS(=O)(=O)NC(=O)c1cc(-c2ccc(N3CCC(C#N)CC3)nc2)c2c(n1)n(-c1ccccc1)nc2[C@H]1C[C@H](C)C1
Response given: M

Challenge: Could you place CC(C)c1nn(-c2cccc(N3CCCC3)c2)c2nc(C(=O)NS(C)(=O)=O)cc(-c3ccc(N(C)C4CCOCC4)cc3)c12 in its proper category? Many thanks.
Response given: H

Challenge: Band assignment needed for CC(C)c1nn(-c2ccc(F)cc2)c2nc(C(=O)NS(C)(=O)=O)cc(OCCCN(C)C)c12 please.
Response given: L

Challenge: Entry CC(C)c1nn(-c2cccc(N3CCOCC3)n2)c2nc(C(=O)NS(C)(=O)=O)cc(-c3ccc(N4CCOCC4)cc3)c12 belongs to which category?
Response given: H

Challenge: In plain terms, what class is COCC1CCN(c2cc(C(=O)NS(=O)(=O)N3CCC(C(=O)N4CCN(C)CC4)CC3)nc3c2c(C2CCC2)nn3-c2ccccc2)CC1 ?
Response given: L

Challenge: Note: place this compound into its band. Item: CC(C)c1nn(-c2ccccc2)c2nc(C(=O)NS(C)(=O)=O)cc(-c3cnc(N4CCOCC4)nc3)c12
Response given: M

Challenge: Pick a category. Item: CN(C)S(=O)(=O)NC(=O)c1cc(N2CCC(N3CCCCC3)CC2)c2c(C3CCC3)nn(-c3ccccc3)c2n1
Response given: L

Challenge: Class for CCN1CCN(Cc2ccc(-c3cc(C(=O)NS(C)(=O)=O)nc4c3c(OC(C)C)nn4C3CCCCC3)cc2)CC1 ?
Response given: M

Challenge: Lab note: sort COCCS(=O)(=O)NC(=O)c1cc(N2CCC(CN3CCOCC3)CC2)c2c(C3CCC3)nn(-c3ccc(F)cc3)c2n1 into the matching % Activation band.
Response given: H

Challenge: Which bin, given its % Activation, does COC1CCN(C2CCN(c3cc(C(=O)NS(=O)(=O)N4CCOCC4)nc4c3c(C3CCC3)nn4-c3ccc(F)cc3)CC2)CC1 occupy?
Response given: L

Challenge: Category of COCC1CCN(c2cc(C(=O)N3CCCS3(=O)=O)nc3c2c(C2CCC2)nn3-c2ccccc2)CC1 :
Response given: L

Challenge: The entry to classify is Cc1nn(-c2ccc(F)cc2F)c2nc(C(=O)NS(C)(=O)=O)cc(-c3ccc(N4CCOCC4)nc3)c12 ; which class holds it?
Response given: L

Challenge: For this compound, which bin applies? CC(C)c1nn(-c2ccnc(N3CCCC3)c2)c2nc(C(=O)NS(C)(=O)=O)cc(-c3ccc(N4CCC(C#N)CC4)nc3)c12
Response given: H

Challenge: Lab log: COC1CCN(c2cc(C(=O)NS(C)(=O)=O)nc3c2c(C(C)C)nn3-c2cccc(N3CCOCC3)n2)CC1 — assign % Activation category
Response given: M

Challenge: Lab note: which band did CS(=O)(=O)NC(=O)c1cc(N2CCC(S(C)(=O)=O)CC2)c2c(C3CCC3)nn(-c3ccccc3)c2n1 land in?
Response given: M

Challenge: Band assignment needed for CCS(=O)(=O)NC(=O)c1cc(-c2ccc(N(C)C)nc2)c2c(C3CC3)nn(C3CCCCC3)c2n1 please.
Response given: L

Challenge: Looking at COCC1CCN(c2cc(C(=O)NS(=O)(=O)N3CCC(N4CCOCC4)CC3)nc3c2c(C2CCC2)nn3-c2ccc(F)cc2)CC1 , which class would you pick?
Response given: M

Challenge: Would you mind sorting CS(=O)(=O)NC(=O)c1cc(N2CCC(O)(CC#N)CC2)c2c(C3CCC3)nn(-c3ccccc3)c2n1 into the appropriate category?
Response given: L
